Known growth of a selection of compounds
- Tested on: SF-268 CNS
- run.description: NCI-60 one-dose screen, 48 h (100 = growth as untreated, 0 = no growth, -100 = all killed)
- experimental.conditions: 10 µM
This is part of a sample that, as a whole, favours compounds with a hit. Of some 83,000 tested, about 20% had one in any assay.
API: value field is a number in %; no unit string.

Solved entries:
CCN(CCCCCCN1CC(=O)N(CCCCCCN(CC)Cc2ccccc2OC)CC1=O)Cc1ccccc1OC
90.6
CCc1ccc2c(c1)N(CCO)C1=C(C(=O)OC1)C2c1ccccc1 (stereo not drawn)
106
Clc1ccc(/C=C2\CCCC3=C2N=C2SC=NN2C3c2ccc(Cl)cc2)cc1 (stereo not drawn)
99.2
COc1ccc2c(c1)-c1c(c3cc(OC)ccc3n(CCN(C)C)c1=O)C2=O
22.1
CC(C)=CCc1ccc(O)c(=O)cc1C(C)C
13.7

State its growth on SF-268 CNS: `Nc1nc(N)c(NC(=O)CNc2ccc(C(=O)O)cc2)c(N)n1`
119

Item: CCOC(=O)C(NC(=O)C(Cl)Cl)C(O)c1ccccc1 (stereo not drawn)
99.3

* * *

Known growth of a selection of molecules
- Tested on: OVCAR-3 ovarian
- run.description: NCI-60 one-dose screen, 48 h (100 = growth as untreated, 0 = no growth, -100 = all killed)
- experimental.conditions: 10 µM
The panel holds about 83,000 compounds, 20% with a hit somewhere; the sample as a whole holds those more often.
API: value field is a number in %; no unit string.

O=C(O)c1ccc(P(=O)(O)O)c([N+](=O)[O-])c1
111
NC(=O)SCC(=O)Nc1ccc(S(N)(=O)=O)cc1
107

Would you mind telling me what growth value was observed for `O=C1C(=O)c2ccccc2C(O)=C1CCCc1ccc(C2CCCCCC2)cc1` ?
51.5

Item: `N#Cc1ncc(Br)c(NC2CCCCCC2)n1`
119

Item: C=C(NC(=O)C(=C)NC(=O)c1csc(C2=NC3c4csc(n4)C4NC(=O)c5csc(n5)C(C(C)(O)C(C)O)NC(=O)C5CSC(=N5)/C(=C/C)NC(=O)C(C(C)O)NC(=O)c5csc(n5)C3(CC2)NC(=O)C(C)NC(=O)C(=C)NC(=O)C(=C)NC(=O)C(C(C)C)NC2C=Cc3c(C(C)O)cc(nc3C2O)C(=O)OC4C)n1)C(N)=O (stereo not drawn)
13.4

* * *

- Test system: SK-MEL-28 melanoma
- run.description: NCI-60 one-dose screen, 48 h (100 = growth as untreated, 0 = no growth, -100 = all killed)
- experimental.conditions: 10 µM
Compounds without any hit were thinned out: in the full panel of roughly 83,000, 20% have a hit.
metric: growth (%)
API: value field is a number in %; no unit string.

Solved entries:
COc1ccc(NC2=NC(C)(CO)CS2)cc1 (stereo not drawn)
106
CCCCN(CCCC)CCCCCCCCC(O)c1cc2ccccc2c2ccccc12 (stereo not drawn)
79.6
CCN1CCC(CCOC)(CN2c3ccccc3Sc3ccc(Cl)cc32)C1 (stereo not drawn)
58.2
CCOC(=O)CCC(NC(=O)c1ccc(N)cc1)C(=O)OCC (stereo not drawn)
105
N=C(N)c1ccc(-c2ccc(-c3cccs3)o2)cc1
47.6

Next, consider the following compound.
State its growth on SK-MEL-28 melanoma: `COc1ccc(-c2nc3ncccn3c2-c2nnc(-c3ccsc3C)o2)cc1`
78.2

* * *

- Test system: UO-31 renal
- run.description: NCI-60 one-dose screen, 48 h
- experimental.conditions: 10 µM
The panel holds about 83,000 compounds, 20% with a hit somewhere; the sample as a whole holds those more often. The source made the active and inactive calls. How the source made its calls: active means growth percent below 10; inactive means the rest.
Just give me one of these, please: class 1 for active, class 0 for inactive

CN1CCCNc2c(c(=O)c2=O)NCCCN(C)CCCNc2c(c(=O)c2=O)NCCCN(C)CCCNc2c(c(=O)c2=O)NCCCN(C)CCCNc2c(c(=O)c2=O)NCCCN(C)CCCNc2c(c(=O)c2=O)NCCCN(C)CCCNc2c(c(=O)c2=O)NCCCN(C)CCCNc2c(c(=O)c2=O)NCCC1
class 0

Hi, sorry to bother you, what did the test record for `COc1cc(-c2cc(C(=O)N3CCN(C(=O)c4ccccc4NCc4ccco4)CC3)nc3cc(-c4ccccc4)nn23)cc(OC)c1OC` ?
class 1

Item: `CCOC(=O)c1ccc(NC(=O)Nc2ncc(Cl)cc2Cl)cc1`
class 0

Item: `O=C(CCCCC(=O)Nc1ccc2c(c1)/C(=C/c1ccc[nH]1)C(=O)N2)NO`
class 0

Item: `Nc1ccccc1NC(=O)CCCCC(=O)Nc1ccc2c(c1)/C(=C/c1ccc[nH]1)C(=O)N2`
class 0

Item: `CC/C(=C(/c1ccc(OCCN(C)C)cc1)c1ccc(OC(=O)CCCCC(=O)c2c(C)[nH]c(/C=C3\N=C(c4ccc[nH]4)C=C3OC)c2C)cc1)c1ccccc1`
class 0

Item: CC(C)=CCc1cc(O)cc2c1OC(C=C(C)C)C1=C2C(=O)C2=C(NCCS2(=O)=O)C1=O (configuration not stated)
class 0

* * *

- Tested on: CCRF-CEM leukemia
- run.description: NCI-60 one-dose screen, 48 h (100 = growth as untreated, 0 = no growth, -100 = all killed)
- experimental.conditions: 10 µM
About 83,000 compounds went through this panel and 20% of them were active in at least one assay; those are over-represented in the sample as a whole.
Field: label. Allowed values: met (growth < 90%) or not met (growth >= 90%).

Illustrative cases are given below, each with its answer.
C#Cc1ccc(-n2c(/C=C/c3ccc(C(F)(F)F)cc3)nc3ncccc3c2=O)cc1
met
O=C(CC(NC(=O)OCc1ccccc1)C(=O)OCc1ccccc1)OCc1ccccc1 (stereo not given)
met
Cc1ccc(C)c(C(O)(c2cc(C)ccc2C)C2(O)CCCCC2)c1
not met
COc1cc(NC(=O)CCSc2nc3ccc(C)cc3c(=O)n2Cc2ccccc2)cc(OC)c1OC
not met
CCOC(=O)N1C/C(=C/c2ccc(Cl)cc2)C(=O)/C(=C/c2ccc(Cl)cc2)C1
met

Consider Cc1[nH]nc2c1C(c1cnn(C)c1)C(C#N)=C(N)O2 (stereo not given) . Does its growth lie strictly below 90%?
not met

Item: `C=C(Cl)[C@@](Cl)(CBr)CC[C@@H](Br)C(C)(C)Cl`
not met

Item: COc1cc(NC(=O)c2sc3nc4c(cc3c2N)C(O)CCC4)cc(OC)c1 (stereo not given)
met

* * *

Known growth of a selection of compounds
- Tested on: NCI-H23 lung
- run.description: NCI-60 one-dose screen, 48 h (100 = growth as untreated, 0 = no growth, -100 = all killed)
- experimental.conditions: 10 µM
The panel holds about 83,000 compounds, 20% with a hit somewhere; the sample as a whole holds those more often.
API: value field is a number in %; no unit string.

Would you mind telling me what growth value was observed for `COc1ccc(S(=O)(=O)NCCCNc2nccc(-c3c(-c4ccc(F)cc4)nc4sccn34)n2)cc1` ?
74.8

Item: `CC(=O)n1c(-c2ccc(Cl)c(Cl)c2)cn(-c2ccc(Cl)cc2)c1=O`
27.5

Item: `COc1ccc(-c2cc(-c3cccc(NS(C)(=O)=O)c3)nc(N)c2C#N)cc1`
37.7

Item: `O=C(O)c1ccc(Cl)cc1Nc1ccc(F)cc1`
92.7

Item: CCN(CC)CCCC(C)Nc1ccc2ccc(Cl)cc2n1 (stereo unspecified)
98.5

Item: `NC(=O)CC1(c2ccccc2)CCCCC1`
103

* * *

- Test system: UACC-257 melanoma
- run.description: NCI-60 one-dose screen, 48 h (100 = growth as untreated, 0 = no growth, -100 = all killed)
- experimental.conditions: 10 µM
This is part of a sample that, as a whole, favours compounds with a hit. Of some 83,000 tested, about 20% had one in any assay.
Known growth of a selection of molecules
API: value field is a number in %; no unit string.

Solved entries:
CSC1=NCCCC1
100
COc1ccc(/C(=C2\O[C@@H]([C@H]3COC(C)(C)O3)[C@H]3OC(C)(C)O[C@@H]23)c2cc(OC)c(OC)c(OC)c2)cc1O
107
O=C(CCCCCCC(=O)Nc1cccnc1)NO
78.4

State its growth on UACC-257 melanoma: `COc1ccc(-c2nc3ncccn3c2-c2nnc(-c3ccsc3C)o2)cc1`
78.4

Item: `Cc1ccc(C(=O)N2C/C(=C/c3ccccc3)C(=O)/C(=C/c3ccccc3)C2)cc1`
80.1

Item: Nc1ccn(C2CC(O)C(CO)O2)c(=O)n1 (stereo unspecified)
113

* * *

Known growth of a selection of molecules
- System: MDA-MB-231 breast
- run.description: NCI-60 one-dose screen, 48 h (100 = growth as untreated, 0 = no growth, -100 = all killed)
- experimental.conditions: 10 µM
The panel holds about 83,000 compounds, 20% with a hit somewhere; the sample as a whole holds those more often. The source made the active and inactive calls. How the source made its calls: active means growth percent below 10; inactive means the rest.

CC1=C(N2CCOCC2)C(N2CCOCC2)=C(C)C(=O)C1=O
115% (inactive)
COC(=O)c1c(-c2ccccc2)csc1NC(=O)c1c(-c2ccccc2)noc1C
59.2% (inactive)
Nc1c(C(=O)Nc2ccccc2)sc2nc3c(cc12)CCCC3
56% (inactive)
CCCCCCCC(C)NCCO (configuration not stated)
123% (inactive)
S=c1[nH]ccn1-c1c(Cl)cccc1Cl
102% (inactive)

Next, consider the following molecule.
Would you mind telling me what growth value was observed for `COc1cc2nc(Nc3cccc(C(=O)O)c3)nc(N)c2cc1OC` ?
86.8% (inactive)
